Cited source: ChEMBL document CHEMBL3714749

# target.under.test: G-protein coupled receptor 6 (Homo sapiens)
# procedure.text: Activity at GPR6 (unknown origin) expressed in CHOK1 cells assessed as inhibition of constitutive cAMP activity incubated for 45 mins by HTRF based cAMP detection assay
For each of the molecules below, state its log10 of IC50.
Form field - Quantity: IC50; Unit: nM; Scale: log10

Task: Requested read-out: log10 of IC50. Entry: "COCCNc1nc2ccncc2nc1N1CCC(Cc2ccc(F)cc2F)CC1"
Result: 1.48

Task: Continue with "O=C(c1ccccc1Br)C1CCN(c2nc3cnccc3nc2NC2CC2)CC1"
Result: 1.89

Task: Continue with "O=C(c1ccsc1)C1CCN(c2nc3cnccc3nc2NC2CC2)CC1"
Result: 3.36

Task: Continue with "COc1ccc(OC2CCN(c3nc4ccncc4nc3NC3CC3)CC2)c(F)c1"
Result: 1.64

Task: Continue with "N#Cc1cccc(OC2CCN(c3nc4cnccc4nc3NC3CC3)CC2)c1"
Result: 4.19

Task: Continue with "N#Cc1cc2nc(NC3CC3)c(N3CCC(Cc4ccc(F)cc4F)CC3)nc2cn1"
Result: 1.18

Task: Continue with "Fc1ccc(OC2CCN(c3nc4ccncc4nc3NC3CCC3)CC2)c(F)c1"
Result: 1.15

Task: Continue with CC(O)c1ccc(OC2CCN(c3nc4cnccc4nc3NC3CC3)CC2)cc1 (stereo unspecified)
Result: 3.78

Task: Continue with "Cc1nccc2nc(NC3CC3)c(N3CCC(Cn4ccc(F)cc4=O)CC3)nc12"
Result: 2.58

Task: Continue with "O=C(c1cc(F)ccc1Cl)C1CCN(c2nc3cnccc3nc2NC2CC2)CC1"
Result: 1.79

Task: Continue with "COCCNc1nc2ccc(C#N)cc2nc1N1CCC(Cc2ccc(F)cc2F)CC1"
Result: 2.40

Task: Continue with "COc1cccc(OC2CCN(c3nc4cnncc4nc3NC(C)C)CC2)c1"
Result: 3.00

Task: Continue with "O=C(c1csc(Cl)c1)C1CCN(c2nc3cnccc3nc2NC2CC2)CC1"
Result: 3.68

Task: Continue with "Cc1c(Cl)cc(F)cc1S(=O)(=O)N1CCN(c2nc3cc(C#N)ccc3nc2NC2CC2)CC1"
Result: 2.98

Task: Continue with "N#Cc1ccc2nc(NC3CC3)c(N3CCN(S(=O)(=O)c4cc(C(F)(F)F)ccc4Cl)CC3)nc2c1"
Result: 3.13

Task: Continue with COCCNc1nc2ccc(C#N)cc2nc1N1CCC(C(F)c2ccc(F)cc2F)CC1 (stereo unspecified)
Result: 2.53

* * *

# target.under.test: G-protein coupled receptor 6 (Homo sapiens, UniProt P46095)
# Sequence (P46095 whole entry): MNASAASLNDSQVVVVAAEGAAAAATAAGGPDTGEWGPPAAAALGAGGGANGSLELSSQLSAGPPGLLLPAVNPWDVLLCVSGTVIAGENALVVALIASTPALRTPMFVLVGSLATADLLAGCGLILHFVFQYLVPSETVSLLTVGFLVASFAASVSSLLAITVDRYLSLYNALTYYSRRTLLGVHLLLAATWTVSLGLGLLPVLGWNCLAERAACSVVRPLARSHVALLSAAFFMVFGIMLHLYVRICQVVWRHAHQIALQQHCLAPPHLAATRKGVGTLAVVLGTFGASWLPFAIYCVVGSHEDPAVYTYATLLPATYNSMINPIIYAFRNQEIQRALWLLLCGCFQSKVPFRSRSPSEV
# procedure.text: Activity at GPR6 (unknown origin) expressed in CHOK1 cells assessed as inhibition of constitutive cAMP activity incubated for 45 mins by HTRF based cAMP detection assay
recorded.metric: IC50 (nM)
Answer in nM, number only, no unit symbol.

Task: What value of IC50 on G-protein coupled receptor 6 (Homo sapiens, UniProt P46095) does "N#Cc1ccc2nc(NC3CCC3)c(N3CCN(C(=O)c4ccc(Cl)cc4)CC3)nc2c1" have?
Result: 300

Task: Continue with "Cc1cc(C(=O)N2CCN(c3nc4ccccc4nc3NC3CC3)CC2)ccc1Cl"
Result: 720

Task: Continue with "N#Cc1cccc(C(=O)C2CCN(c3nc4cnccc4nc3NC3CC3)CC2)c1"
Result: 7210

* * *

# target.under.test: UniProt P46095
# procedure.text: Activity at GPR6 (unknown origin) expressed in CHOK1 cells assessed as inhibition of constitutive cAMP activity incubated for 45 mins by HTRF based cAMP detection assay
For each of the molecules below, state its IC50.
Answer in nM, number only, no unit symbol.

Task: What value of IC50 on UniProt P46095 does "CC(C)Nc1nc2cnncc2nc1N1CCC([C@@H](F)c2ccc(F)cc2F)CC1" have?
Result: 14

Task: Continue with "N#Cc1ccc2nc(NC3CC3)c(N3CCN(S(=O)(=O)c4ccc(Br)s4)CC3)nc2c1"
Result: 420

Task: Continue with "Cc1cc2nc(NC3CC3)c(N3CCC(Cc4ccc(F)cc4F)CC3)nc2cn1"
Result: 20

Task: Continue with "Fc1cc2nc(NC3CC3)c(N3CCN(Cc4cc(Cl)ccc4Cl)CC3)nc2cc1F"
Result: 800

Task: Continue with "CN(C)C(=O)c1cc2nc(NC3CC3)c(N3CCC(Oc4ccc(F)cc4F)CC3)nc2cn1"
Result: 5

Task: Continue with "N#Cc1ccc2nc(NC3CC3)c(N3CCN(S(=O)(=O)c4ccccc4C#N)CC3)nc2c1"
Result: 4340

Task: Continue with "Fc1cc(Cl)ccc1OC1CCN(c2nc3cnncc3nc2NC2CC2)CC1"
Result: 30

Task: Continue with "Clc1ccc(Cl)c(CN2CCN(c3nc4cnccc4nc3NC3CC3)CC2)c1"
Result: 32

Task: Continue with "N#Cc1cc2nc(NC3CC3)c(N3CCC([C@H](F)c4ccc(F)cc4F)CC3)nc2cn1"
Result: 11

* * *

# target.under.test: G-protein coupled receptor 6 (Homo sapiens)
# procedure.text: Activity at GPR6 (unknown origin) expressed in CHOK1 cells assessed as inhibition of constitutive cAMP activity incubated for 45 mins by HTRF based cAMP detection assay
// assign Met if IC50 falls strictly below 100 nM, else Not met (ties count as Not met)

Task: Hello, is IC50 of the following molecule strictly smaller than 100 nM? CC(C)Nc1nc2ccncc2nc1N1CCC(C(F)c2ccc(F)cc2F)CC1 (configuration not stated)
Result: Met

Task: Continue with "Fc1cc(F)c(CN2CCN(c3nc4cnccc4nc3NC3CC3)CC2)cc1F"
Result: Met

Task: Continue with "N#Cc1ccc2nc(NC3CC3)c(N3CCN(S(=O)(=O)c4ccccc4Br)CC3)nc2c1"
Result: Not met

Task: Continue with "CSc1ccc(OC2CCN(c3nc4cnncc4nc3NC3CC3)CC2)c(F)c1"
Result: Met

Task: Continue with "N#Cc1ccc2nc(NCCC(F)(F)F)c(N3CCC(Oc4ccc(F)cc4F)CC3)nc2c1"
Result: Not met

Task: Continue with "Fc1ccc(F)c(CN2CCN(c3nc4ccncc4nc3NC3CC3)CC2)c1"
Result: Not met

Task: Continue with "CC[C@@H](C)Nc1nc2cnncc2nc1N1CCC(Oc2ccc(OC)cc2F)CC1"
Result: Met

Task: Continue with "CCNc1nc2cnccc2nc1N1CCC(Oc2ccc(OC)cc2F)CC1"
Result: Met

Task: Continue with "N#Cc1ccc2nc(NCCF)c(N3CCN(C(=O)c4ccc(Cl)cc4)CC3)nc2c1"
Result: Not met

Task: Continue with "CC(C)Nc1nc2ccc(C#N)cc2nc1N1CCC([C@@H](F)c2ccc(F)cc2F)CC1"
Result: Met

Task: Continue with "N#Cc1ccc2nc(NC3CC3)c(N3CCN(Cc4cc(F)ccc4F)CC3)nc2c1"
Result: Not met

Task: Continue with "COc1ccc2nc(N3CCN(Cc4cc(Cl)ccc4Cl)CC3)c(NC3CC3)nc2c1"
Result: Not met

Task: Continue with "O=C(c1cc(Cl)ccc1Cl)N1CCN(c2nc3ccccc3nc2NC2CC2)CC1"
Result: Not met

Task: Continue with "CN(C)C(=O)c1cc2nc(NC3CC3)c(N3CCN(C(=O)c4cc(F)ccc4Cl)CC3)nc2cn1"
Result: Not met

Task: Continue with "Fc1ccc(CC2CCN(c3nc4cc(F)ccc4nc3NC3CC3)CC2)c(F)c1"
Result: Met

Task: Continue with "Fc1cc(F)c(CN2CCN(c3nc4ccncc4nc3Nc3cccnc3)CC2)cc1F"
Result: Not met

Task: Continue with "CC(C)Nc1cc(Cl)cc(C(=O)C2CCN(c3nc4ccc(C#N)cc4nc3NC(C)C)CC2)c1"
Result: Not met

Task: Continue with Cc1cc2nc(NC3CC3)c(N3CCC(C(F)c4ccc(F)cc4F)CC3)nc2cn1 (configuration not stated)
Result: Met

Task: Continue with "N#Cc1ccc2nc(NCCC(F)(F)F)c(N3CCN(Cc4ccc(F)cc4F)CC3)nc2c1"
Result: Not met

Task: Continue with "N#Cc1nccc2nc(NC3CC3)c(N3CCN(Cc4ccc(F)cc4F)CC3)nc12"
Result: Met
